Numbers sourced from ChEMBL document CHEMBL1157476.

# experimental details: Metabolic stability in rat hepatocyte after 30 mins
# Format: ADME, cell-based
# setup conditions: rat hepatocytes, read-out: Stability
observed property: remaining at 0.5 h (%)

{"columns": ["smiles entry", "value units", "value"],
 "data": [
  ["O[C@H]1C[C@H](CN2CC[C@H](c3ccc(F)cc3Cl)[C@@H](O)C2)Cc2cccnc21", "%", 30],
  ["Cc1ccccc1[C@@H]1CCN(C[C@@H]2CCc3cccnc3[C@@H](O)C2)C[C@H]1O", "%", 6]
]}

---

# experimental details: in vivo
# setup conditions: dog, plasma, iv, 7 mg/kg
# Description: Plasma concentration in anesthetized dog at 7 mg/kg, iv dosed for 10 mins measured after 20 mins
Consider the following compounds and their measured concentration at 20 min readings.

{"columns": ["smiles entry", "concentration at 20 min, µM"],
 "data": [
  ["Cc1ccccc1[C@@H]1CCN(C[C@@H]2CCc3cccnc3[C@@H](O)C2)C[C@H]1O", 17.9],
  ["O[C@H]1C[C@H](CN2CC[C@H](c3ccc(F)cc3Cl)[C@@H](O)C2)Cc2cccnc21", 29.8]
]}

---

# experimental details: Volume of distribution at steady state in Sprague-Dawley rat at 3 mg/kg, iv
# Format: ADME, organism-based
# Design: dose 3 mg/kg, route intravenous
# setup conditions: in vivo, read-out: Vdss
observed property: Vd (L/kg)

{"columns": ["smiles entry", "value"],
 "data": [
  ["Cc1ccccc1[C@@H]1CCN(C[C@@H]2CCc3cccnc3[C@@H](O)C2)C[C@H]1O", 6.3]
]}

---

# Test system: Rattus norvegicus
# experimental details: AUC (0 to infinity) in Sprague-Dawley rat at 0.65 mg/kg, iv
# Assay type: ADME, organism-based, Plasma
# Parameters: time infinity, dose 0.65 mg/kg, route intravenous
# setup conditions: in vivo

{"columns": ["smiles entry", "AUC / µM·h"],
 "data": [
  ["O[C@H]1C[C@H](CN2CC[C@H](c3ccc(F)cc3Cl)[C@@H](O)C2)Cc2cccnc21", 0.59]
]}

---

# experimental details: Volume of distribution at steady state in Sprague-Dawley rat at 0.65 mg/kg, iv
# Type: ADME, organism-based
# Design: dose 0.65 mg/kg, route intravenous
# setup conditions: in vivo, read-out: Vdss

{"columns": ["smiles entry", "value units", "Vd"],
 "data": [
  ["O[C@H]1C[C@H](CN2CC[C@H](c3ccc(F)cc3Cl)[C@@H](O)C2)Cc2cccnc21", "L/kg", 3.9]
]}
